Attribution: patent US12018009B2

Molecular target: recombinant human ALDH-2 (Homo sapiens, UniProt P05091)
Sequence (P05091 18-517): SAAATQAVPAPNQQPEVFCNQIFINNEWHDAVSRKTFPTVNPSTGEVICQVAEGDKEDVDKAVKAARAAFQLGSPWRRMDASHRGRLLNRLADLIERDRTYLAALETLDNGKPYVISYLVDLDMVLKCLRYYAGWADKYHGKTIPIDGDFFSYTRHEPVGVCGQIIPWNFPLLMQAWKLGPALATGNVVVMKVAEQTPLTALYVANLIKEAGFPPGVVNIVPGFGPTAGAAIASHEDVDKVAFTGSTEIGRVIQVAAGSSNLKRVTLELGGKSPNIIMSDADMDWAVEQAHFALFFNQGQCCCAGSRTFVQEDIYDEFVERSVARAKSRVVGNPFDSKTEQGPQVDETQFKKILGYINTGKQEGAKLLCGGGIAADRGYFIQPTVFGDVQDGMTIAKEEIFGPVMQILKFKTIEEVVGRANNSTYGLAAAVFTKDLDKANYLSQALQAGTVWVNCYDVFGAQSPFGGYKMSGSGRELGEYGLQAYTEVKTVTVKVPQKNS
Assay: ALDH-2 inhibition assay
Details: 60 min pre-incubation; 10 μM = highest concentration tested; read-out: Enzymatic Assays IC50 ALDH2
pIC50: −log10 of the molar value.
Below, each entry is listed alongside its reported pIC50.
ASSAY_READOUT: pIC50

substance_smiles=Cc1nccc(Cl)c1C(=O)NCc1cnc(N2CCNC(=O)C2)nc1 observed_measurement=7.06
substance_smiles=Cc1cccc(Cl)c1C(=O)NCc1cnc(N2CCNC(=O)C2)nc1 observed_measurement=7.05
substance_smiles=O=C1CN(c2ncc(CNC(=O)c3ccccc3Cl)cn2)CCN1 observed_measurement=6.58
